These measurements were taken from ChEMBL document CHEMBL1201862.

# Test system: DMS-273
# Protocol: NCI tumour cell line growth inhibition, 48 h
Active and inactive are the calls of the source. Rule as the data show it: active = GI50 up to about 1.1 µM and inactive = higher.
Listed molecules paired with reported GI50

Use the examples below as a reference point.
INSERT INTO results (molecule, meas_value) VALUES
  ('CCn1c2c(n(CC)c1=S)-c1c(n(CC)c(=S)n1CC)SSSS2', '17.5 µM (inactive)'),
  ('N/C(=N\N=C=C1C(=O)Nc2ccc(F)cc21)NO', '> 100 µM (inactive)');

GI50 measured on N#Cc1nc(Nc2ccc([N+](=O)[O-])cc2)sc1N = 21.2 µM (inactive)

In plain terms, CCO/C=C\C12CCCC1NC(c1ccccc1)(c1ccccc1)O2 (configuration not stated) has a documented GI50 of 32.7 µM (inactive)

Consider O=C(c1cc(=O)c2ccc(O)cc2o1)c1ccc(Cl)cc1Cl . Its measured GI50 is 3.89 µM (inactive)

---

# Tested on: SK-MEL-28
# Protocol: NCI tumour cell line growth inhibition, 48 h
Activity calls are given as the source filed them. No stated cut-off is given here; in the data, active = GI50 up to about 1.1 µM and inactive = higher.
Endpoint Label: GI50

These recorded examples may help you get a feel for the data.
INSERT INTO measurements (molecule, meas_value) VALUES
  ('COc1ccc2nc3cc([N+](=O)[O-])ccc3c(NNc3ccc([N+](=O)[O-])cc3)c2c1', '68.2 µM (inactive)'),
  ('COc1ccc2[nH]c3c(C)c4ccnc(NCCCN(C)CCCNC(=O)NCCCN(C)CCCNc5nccc6c(C)c7[nH]c8ccc(OC)cc8c7c(C)c56)c4c(C)c3c2c1', '1.48 µM (inactive)'),
  ('CC(=O)CC1CCC(=O)/C=C/C(=O)OC(CC(C)=O)CCC(=O)/C=C/C(=O)O1 (stereo not given)', '7.33 µM (inactive)'),
  ('CC1(C)Cc2c(sc3[nH]c(=S)[nH]c(=S)c23)CS1', '22.4 µM (inactive)');

Lab note: next molecule to report on.
Quick note, GI50 for COc1ccc(C=O)c(N(C)C(=O)C(C)(C)C)c1 landed at > 100 µM (inactive)

---

# System: MOLT-4
# Protocol: NCI tumour cell line growth inhibition, 48 h
Active and inactive are the calls of the source. Cut-off read from the data, not from the text of the source: active = GI50 up to about 1.1 µM and inactive = higher.
Answer with one of the outcomes given here: YES for active, NO for inactive

These recorded examples may help you get a feel for the data.
INSERT INTO results (compound, target_desc, category_label) VALUES
  ('N#C[C@@]12CCCC(=O)[C@@H]1[C@H]1CCC[C@H]12', 'MOLT-4', 'NO'),
  ('COc1ccc(-c2c(N)n(-c3cc(OC)cc(OC)c3)c(=O)c3cc([N+](=O)[O-])ccc23)cc1', 'MOLT-4', 'NO'),
  ('O=C(CCC1CCCCN1)Nc1ccc2c(c1)C(=O)c1ccc(NC(=O)CCN3CCCCC3)cc1C2=O (stereo not given)', 'MOLT-4', 'NO'),
  ('COc1ccc2[nH]c3c(C)c4ccnc(NCCCN(C)CCCNC(=O)NCCCN(C)CCCNc5nccc6c(C)c7[nH]c8ccc(OC)cc8c7c(C)c56)c4c(C)c3c2c1', 'MOLT-4', 'YES');

Shifting focus to the compound that follows.
Test call for this compound, please: CC(=O)c1cc2c(s1)C(=O)c1sccc1C2=O YES

---

# Tested on: UACC-257
# Protocol: NCI tumour cell line growth inhibition, 48 h
Activity calls are given as the source filed them. Rule as the data show it: active = GI50 up to about 1.1 µM and inactive = higher.
Respond only with the outcome that fits, drawn from active, inactive

What classification did C[C@H](CCC(=O)NCCS(=O)(=O)O)[C@H]1CC[C@H]2[C@@H]3CC[C@@H]4C[C@H](O)CC[C@]4(C)[C@H]3CC[C@]12C end up with in this test? inactive

Recorded test outcome, item COc1ccc(/C=C\c2cc(OC)c(OC(C)=O)c(OC)c2)cc1 inactive

Tell me the assay call for Clc1ccc(OCc2nnc(CCCCCCCCc3nnc(COc4ccc(Cl)cc4Cl)n3Nc3ccccc3)n2Nc2ccccc2)c(Cl)c1 please. inactive

Per the assay record, what outcome was assigned to COc1ccc(C(c2ccc3c(c2)OCO3)N2C(=O)CCC2C(=O)O)cc1 (stereo not drawn) ? inactive

Tell me the recorded outcome of this test for Cn1nc2n(c1=O)CCCN2 . inactive

For this compound, state the assay outcome: Cc1c(-c2ccc(O)cc2)n(CCCCCCNCCOC(=O)NCCCc2ccc(N(CCCl)CCCl)cc2)c2ccc(O)cc12 inactive

I would be grateful if you could indicate the recorded call for O=C1C=CC(O)C2C1CC13SSC4(CC5C(=O)C=CC(O)C5N4C1=O)C(=O)N23 (stereo not drawn) . active

Please indicate how the test categorized CN(C)CCNC(=O)c1ccc2nc3c(nc2c1)C(=O)c1ccccc1-3 . inactive

Please indicate how the test categorized Cc1[nH]c2ccccc2c1/C=N/c1ccc(Oc2ccccc2)cc1 . inactive
